biological target: Single-stranded DNA cytosine deaminase (Homo sapiens); assay: Confirmatory qHTS assay for inhibitors of Activation Induced Cytidine Deaminase (AID): AID signals; conditions: recombinant AID, FRET deamination/UDG coupled fluorescence, 4 h; series mostly up to 115 µM
Out of some 1,200 compounds screened, about 30 (2%) were called active. Another 23% or so got no clear call; they are omitted. Calls follow the shape of the dose curve; as a rule, active = well fitted inhibition curve with a large enough effect; inconclusive = small, poorly fitted or top-dose-only effect; inactive = flat fitted curve, though single readings scatter. Only a selection was taken, and actives are over-represented in it overall.
Outcome field: choose from active, inactive

Example entries begin here.
| Compound | Class Name |
| --- | --- |
| N#C/C(=C\c1ccc(-c2cc(Cl)ccc2Cl)o1)C(=O)Nc1ccccc1C(=O)O | active |
| Cc1ccc(C(=O)c2cn(Cc3cc(C)ccc3C)c3nc(C)ccc3c2=O)cc1 | inactive |
| N#C/C(=C\c1ccc(-c2ccc(Cl)c(C(=O)O)c2)o1)c1nc2ccccc2[nH]1 | inactive |

Tell me the assay call for `CCCCCn1c(CCCNC(=O)c2cccc(C)c2)nc2ccccc21` please.
inactive

Could you do the same for COc1ccc(S(=O)(=O)N(CC(=O)NC(C)c2ccccc2)c2ccc(C)cc2)cc1OC (configuration not stated) , please?
inactive

Repeat for the following compound: `COc1ccc(-n2c(-c3ccc(C)cc3)cc3c2CC(C)(C)CC3=O)c(OC)c1`
inactive

// repeat for Cc1cccc(N2CCN(C(=O)CS(=O)(=O)Cc3nc(-c4ccccc4C)oc3C)CC2C)c1 (configuration not stated) and report
inactive

====

target: Single-stranded DNA cytosine deaminase (Homo sapiens); assay: Confirmatory qHTS assay for inhibitors of Activation Induced Cytidine Deaminase (AID): AID signals; conditions: recombinant AID, FRET deamination/UDG coupled fluorescence, 4 h; series mostly up to 115 µM
Hit rate of the full screen: of about 1,200 compounds, about 30 (2%) were called active. Not shown: some 23% with an inconclusive outcome. Calls come from the whole dose curve; as a rule, active = well fitted inhibition curve with a large enough effect; inconclusive = small, poorly fitted or top-dose-only effect; inactive = flat fitted curve, though single readings scatter. This is one part of a sample in which actives are shown more often than they occur.
Answer with one of the outcomes given here: y (active), n (inactive)

Consider the worked cases shown below.
| Molecule | Class Name |
| --- | --- |
| Clc1ccc(-c2noc3ncnc(NCCCN4CCN(c5ccccc5)CC4)c23)cc1 | n |
| CCn1cc(C(=O)NCCCOC(C)C)c(=O)c2cc(S(=O)(=O)N(C)C3CCCCC3)ccc21 | n |
| CCOC(=O)C1=C(CN(CC)Cc2ccccc2)NC(=O)NC1c1ccc(Cl)cc1 (stereo not given) | n |
| CC1(C)CCC2=C(O1)c1ccccc1C(=O)C2=O | y |

// next entry
State the result this test recorded for `COc1ccc(C)cc1NC(=O)c1c(C)oc2ncn(CC(C)C)c(=O)c12` .
n
